Assay: loss of viability in HepG2 cells – cell-based, CellTiter-Glo, cherry-picked, cytotoxicity control for Shn3 inhibitor project, dose response (AID 624134)
Format: functional
The source made the active and inactive calls.
Respond with a class label; see active, inactive

Kindly provide the recorded test outcome for the following molecule: O=C(/C=C/c1cccc([N+](=O)[O-])c1)n1cnc2ccccc21
inactive

Please do the same for CCOc1ccc(S(=O)(=O)N(C)c2ccc(OCC(=O)Nc3nc4ccccc4s3)cc2)cc1 as well.
active

And then Cn1nc(CC(=O)Nc2ccc3c(c2)OCCO3)c2ccccc2c1=O , what is it?
active

For Fc1ccc2[nH]c3c(N4CCN(c5ccccc5)CC4)ncnc3c2c1 then?
active

###

Biological target: Cytochrome P450 3A4 (Homo sapiens);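 also: CYP3A4 tested as one member of a cytochrome P450 panel screen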
Sequence (P08684 whole entry): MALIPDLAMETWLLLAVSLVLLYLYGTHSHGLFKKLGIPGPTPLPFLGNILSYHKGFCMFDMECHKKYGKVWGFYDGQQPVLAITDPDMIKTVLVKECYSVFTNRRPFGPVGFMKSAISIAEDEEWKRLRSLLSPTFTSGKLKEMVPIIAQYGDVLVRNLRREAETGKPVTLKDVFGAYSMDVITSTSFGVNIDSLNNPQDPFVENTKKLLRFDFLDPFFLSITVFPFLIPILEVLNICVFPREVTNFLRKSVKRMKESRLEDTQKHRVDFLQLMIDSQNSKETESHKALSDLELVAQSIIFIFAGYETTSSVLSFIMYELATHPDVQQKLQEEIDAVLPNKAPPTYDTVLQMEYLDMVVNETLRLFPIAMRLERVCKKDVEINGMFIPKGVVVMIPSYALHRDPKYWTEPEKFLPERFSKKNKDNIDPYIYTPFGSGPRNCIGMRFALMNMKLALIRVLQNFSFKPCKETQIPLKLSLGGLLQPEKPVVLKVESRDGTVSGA
Please respond with reported AC50 for every item in the list.

What is its AC50 for Cytochrome P450 3A4 (Homo sapiens)? Entry: CN(C)c1ncc2nc(-c3cccs3)c(=O)n(Cc3cccs3)c2n1
3.16 µM (inconclusive)

# iterate: CN(C)c1ccc(/C=N\NC(=O)c2cnc3ccccc3c2)cc1
3.98 µM (inconclusive)

And for O=c1cnc2cnc(N3CCNCC3)nc2n1Cc1cccs1 ?
15.8 µM (inconclusive)

Lookup COc1cc(NC(=O)c2ccc(COCC(F)(F)F)cc2)cc(OC)c1OC
22.4 µM (inconclusive)

Try the compound Cc1c(-c2ccc(O)cc2)nn(-c2ccc(O)cc2)c1-c1ccc(OCCN2CCCCC2)cc1
3.16 µM (inconclusive)

And the next one, CC(C)=CCC/C(C)=C/CO/N=C1/C[C@@H](O)[C@@H](O)[C@@H]2[C@H]3C(=O)N(c4ccc(F)cc4F)C(=O)[C@@H]3CC[C@H]12 ?
3.98 µM (inconclusive)

// next record CNc1ccnc(-c2ccccc2C(F)(F)F)n1
25.1 µM (inconclusive)

What do you get for S=C(Nc1ccccc1)Nc1ccccc1C#Cc1ccccc1 ?
7.94 µM (inconclusive)

Same thing, different compound: CCCn1nc2cc(C(=O)NC3CCCc4ccccc43)ccc2c1OCC (stereo not given)
15.8 µM (inconclusive)

Same question, S=C(Nc1ccccc1)Nc1nccs1 this time
15.8 µM (inconclusive)

###

Molecular target: Corticotropin-releasing factor receptor 2/Corticotropin-releasing factor-binding protein (Homo sapiens, UniProt P24387+Q13324)
Sequence (Q13324 whole entry): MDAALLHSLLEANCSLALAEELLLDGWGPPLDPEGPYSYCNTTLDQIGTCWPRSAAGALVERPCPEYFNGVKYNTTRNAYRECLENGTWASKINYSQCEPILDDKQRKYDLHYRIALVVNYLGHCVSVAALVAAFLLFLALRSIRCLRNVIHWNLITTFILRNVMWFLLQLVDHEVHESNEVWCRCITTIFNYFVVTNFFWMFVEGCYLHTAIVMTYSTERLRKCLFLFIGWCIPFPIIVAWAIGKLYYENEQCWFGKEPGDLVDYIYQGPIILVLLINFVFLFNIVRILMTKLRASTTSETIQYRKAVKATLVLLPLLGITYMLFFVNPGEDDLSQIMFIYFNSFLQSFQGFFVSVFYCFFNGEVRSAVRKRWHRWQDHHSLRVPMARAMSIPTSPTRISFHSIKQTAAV
Sequence (P24387 whole entry): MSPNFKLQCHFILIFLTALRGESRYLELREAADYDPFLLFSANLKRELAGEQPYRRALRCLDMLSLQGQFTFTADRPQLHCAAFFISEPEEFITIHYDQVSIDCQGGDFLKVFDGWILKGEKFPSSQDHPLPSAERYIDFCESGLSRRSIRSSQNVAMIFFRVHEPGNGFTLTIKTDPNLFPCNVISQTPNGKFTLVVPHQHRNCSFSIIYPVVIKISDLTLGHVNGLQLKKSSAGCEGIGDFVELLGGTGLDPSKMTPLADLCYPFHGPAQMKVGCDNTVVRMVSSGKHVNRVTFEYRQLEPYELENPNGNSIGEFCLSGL
Assay: activators of CRF receptor 2 with binding protein – uHTS hits, confirmation (AID 602473)
Type: functional
Conditions: read-out: EC50_Mean
The source made the active and inactive calls.
Select the correct class. Options are t for active, f for inactive and nothing else.

How did this test come out for CCCN1CCc2c(sc(NC(=O)c3ccc(S(=O)(=O)N(C)c4ccccc4)cc3)c2C(N)=O)C1 ?
t

And what about the molecule CCOc1cc(C2C(C(=O)OC)=CN(C3CCCC3)C=C2C(=O)OC)cc(Br)c1O ?
f

Repeat for the following molecule: NC(=O)C1=C(c2ccccc2)c2ccccc2C1=O
t

Another molecule: O=C(CSc1nc2ccccc2n1CCc1ccccc1)NC1CCS(=O)(=O)C1 (stereo not given)
f

Next molecule up: COc1ccc(CNC(=O)c2sc(=S)n(-c3ccc(OC)cc3)c2N)cc1
f
